test system: ATP; assay: switch fluorescence ratio, 500 uM ATP over buffer (Cy3 cluster intensity, sum of 5 cycles each) (fold (ratio)); higher = stronger signal-on switching upon ATP binding; sequences stand for … in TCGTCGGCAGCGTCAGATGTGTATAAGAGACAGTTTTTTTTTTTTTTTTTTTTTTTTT…TC; settings: aptamer strand: ATP DNA aptamer (quencher-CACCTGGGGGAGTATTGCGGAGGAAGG + anchor), 100 nM annealed; ATP concentration: 500 uM;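 also: ATP exposure 15 min at 22 °C before imaging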
MEASURE: switch fluorescence ratio

- GCACTAGGGA: 0.991
- GCCCGGTCGG: 0.953
- GTGTTTTCCT: 1.04
- AGGTTGTGAG: 0.98
- CTCTTTTGGT: 0.975
- AAGTTCGCCT: 1.09
- CGTATGGCCA: 1.02
- CCGGGGTAGG: 1.04
- TCAGGGGAAG: 0.999
- CATCTAGGGG: 0.999

Values from the supplement of paper PMC10126150
